Target: Full-length PRMT5 enzyme (NCBI Reference sequence NP_006100.2) co-expressed with His6-MEP50 (Homo sapiens (Human))
Sequence (O14744 whole entry): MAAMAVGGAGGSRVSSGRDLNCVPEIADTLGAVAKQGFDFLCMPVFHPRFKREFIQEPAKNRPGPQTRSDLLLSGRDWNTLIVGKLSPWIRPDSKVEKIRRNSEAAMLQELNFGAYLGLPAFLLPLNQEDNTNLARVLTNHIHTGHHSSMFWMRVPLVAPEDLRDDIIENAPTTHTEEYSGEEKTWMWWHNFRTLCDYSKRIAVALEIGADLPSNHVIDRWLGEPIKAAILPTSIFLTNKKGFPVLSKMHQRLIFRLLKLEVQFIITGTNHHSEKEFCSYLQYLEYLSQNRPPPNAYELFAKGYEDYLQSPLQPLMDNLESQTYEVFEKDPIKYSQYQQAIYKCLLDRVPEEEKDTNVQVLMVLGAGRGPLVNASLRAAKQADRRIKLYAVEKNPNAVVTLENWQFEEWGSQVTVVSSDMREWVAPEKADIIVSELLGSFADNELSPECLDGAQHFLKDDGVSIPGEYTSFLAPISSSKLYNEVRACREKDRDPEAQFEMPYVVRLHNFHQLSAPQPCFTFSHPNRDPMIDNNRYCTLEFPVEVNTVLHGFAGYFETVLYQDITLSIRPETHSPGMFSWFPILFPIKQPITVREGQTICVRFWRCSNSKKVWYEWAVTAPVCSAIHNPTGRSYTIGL
Sequence (Q9BQA1 whole entry partner): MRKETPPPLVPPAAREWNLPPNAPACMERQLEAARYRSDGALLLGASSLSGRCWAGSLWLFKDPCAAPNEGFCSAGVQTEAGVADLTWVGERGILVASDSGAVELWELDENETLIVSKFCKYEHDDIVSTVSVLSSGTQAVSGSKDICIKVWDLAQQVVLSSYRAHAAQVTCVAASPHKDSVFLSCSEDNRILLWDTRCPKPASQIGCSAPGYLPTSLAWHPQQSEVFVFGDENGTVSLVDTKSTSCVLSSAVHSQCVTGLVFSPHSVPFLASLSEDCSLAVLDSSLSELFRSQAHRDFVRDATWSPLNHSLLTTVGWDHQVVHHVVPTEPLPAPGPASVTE
Experiment: Revised PRMT5 Biochemical Assay
Details: 1 μM peptide substrate, 1 μM S-Adenosyl methionine, 4 hours at 37 degree Celsius, Transcreener EPIGEN fluorescence polarisation
Where a name gives a salt, the structure may show the parent alone.
// boundary case: IC50 equal to 1000 nM maps to Not fulfilled; strictly smaller maps to Fulfilled

O=C(NC[C@@H](O)[C@@H]1Cc2ccccc2CN1)c1cc(Cl)nc(OC2COC2)c1 [Example 115, dihydrochloride]; Not fulfilled
O=C(NC[C@@H](O)[C@@H]1Cc2ccccc2CN1)c1ccc(N2CCOCC2)nc1 [Example 101]; Fulfilled
CC(NC(=O)c1ccc(C(=O)N2CCOCC2)cc1)[C@H](O)[C@@H]1Cc2ccccc2CN1 (stereo partly shown) [Example 110, hydrochloride]; Not fulfilled
O=C(NC[C@@H](O)[C@@H]1Cc2ccccc2CN1)c1cccc(-c2ccnnc2)c1 [Example 12]; Fulfilled
CC(C)NC(=O)c1ccc(C(=O)NC[C@@H](O)[C@@H]2Cc3ccccc3CN2)cc1 [Example 97]; Not fulfilled

Input: Item COC(=O)N1CCC(Oc2cncc(C(=O)NC[C@@H](O)[C@@H]3Cc4ccccc4CN3)c2)CC1 [Example 118, dihydrochloride] : IC50 beneath 1000 nM, strictly?
Output: Fulfilled

Input: Item O=C(NCc1ccccn1)c1ccc(C(=O)NC[C@@H](O)[C@@H]2Cc3ccccc3CN2)cc1 [Example 56] : IC50 beneath 1000 nM, strictly?
Output: Fulfilled
